B1: TPR 5TU (parent)
chain: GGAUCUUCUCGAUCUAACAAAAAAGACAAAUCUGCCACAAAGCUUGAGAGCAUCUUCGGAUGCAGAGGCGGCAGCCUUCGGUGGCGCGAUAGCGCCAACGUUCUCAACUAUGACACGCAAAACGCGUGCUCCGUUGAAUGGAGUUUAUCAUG

variants of: B1; assay: polymerase ribozyme fitness, log enrichment relative to wild type (log ratio); higher = more active; in vitro selection for triplet polymerase activity
Fewer inactive variants are shown than the library holds.
Assay Metric: polymerase ribozyme fitness (log ratio)

• A23U G50A C95U A137G = ≤ -4.2
• U7G A26C U44A G74C A115C = ≤ -4.2
• C85G C114G = -3.8
• A22C U56A C57U U104G U135C = -3.35
• A12C C14A A30U A39C G58C G83C G124U = ≤ -4.2
• C14U A41C G50U A52C G84A U90G A91C C116U G140A = ≤ -4.2
• A12G U15A U55G C87G C99G C114A A119U = ≤ -4.2
• A16U A41U G59A C116G C129U A150G = ≤ -4.2
• C54U A122U = 0.0261
• U55G C87A C93A C99U U134A = ≤ -4.2
• U4C U7G C87A G100A U101A = ≤ -4.2
• C27U U44G U56A G58C U61A G86U U135C = ≤ -4.2
• A16U A41G = -1.88
• U6G A41G G48U C54U A122U = -0.949
• C57G U101A = 0.403
• U6C A19U A60C C87A A91U U134G = ≤ -4.2
• A12G A73U C96A U109A C116U = -2.66
• A49U C76A U77G C95G C96U C108U A142G = ≤ -4.2
• C35U A49G U53A C87U A89C C95U C132A A142C = ≤ -4.2
• U56C C85G U135C A142U G152A = ≤ -4.2
• C87A C93G C108G = ≤ -4.2
• A3U A19U = -0.0693
• C76U C96A = 0.322
• C27G A37U A64C G88C A91C A120G A122U U148G = -4.09
• U6G A40C = 1.13
• U31G C32U C72A C123G G152A = ≤ -4.2
• A30U U55G C63U A110U G126U = -4.07
• C18G G84U G117U A121G = -2.06
• G83C G128A = -3.88
• G84U U101G G143U = ≤ -4.2
• A41U C51G G58U U61A G68A C96A A97C U102C = ≤ -4.2
• C10G A26C C76A G83A = ≤ -4.2
• A47C C75G U77A G88A A106U = ≤ -4.2
• C54A U56A C93A A98U A138C U151G = ≤ -4.2
• G42U A60G U139C U148A = -4.08
• C69U C85U U127G = -3.4
• A40C U56A G59A C87A A89C G112U A119U G143A = ≤ -4.2
• U55G G68A = -3.69
• G34U G42A U82C U135C = ≤ -4.2
• G84A G136U = -2.81
• U4A A24U C57A C93U G94U G141U = -2.67
• G81A G133U = -3.84
• G46A G74C = ≤ -4.2
• C38U U55A = -0.159
• C69A A115U = -2.49
• G94C U127C = -2.45
• C93U A98C = -0.981
• A60G C95A U101C = 0.139
• G140A G141A = -3.15
• A22C C76A G128U C129U = ≤ -4.2
• C105U = 0.527
• U4G A39G A142G = -3.9
• A49G C54U U109G = -2.26
• A16G A28U C87A A107C = ≤ -4.2
• U31C = 0.947
• C57U A66G = -3.4
• U6A C51A G58C C63G C93G U104G U145A U148C = ≤ -4.2
• G80A C85G = -1.38
• A3C U6G G25U G83A = -3.47
• A106G A113U U135G = ≤ -4.2
• C43G G88A C95U C105A = ≤ -4.2
• A20G A22C G25C C57A G92A C99U C108A = ≤ -4.2
• U53G A107C = ≤ -4.2
• A37U U61A C85U U134A = -3.78
• A16C G50A C85U = -3.26
• U61A U78G C95U A107C U148G A150U = ≤ -4.2
• A16G C27G C54G G83A G86U A97U C105U U146A = ≤ -4.2
• U9G A21U C35U U55A C108U C118U G128A G133A = ≤ -4.2
• G71A C96G = -3.31
• G42C A89G G92A G126U G133A = ≤ -4.2
• A52C C69G G74C = ≤ -4.2
• A17C U33C G83A G141U = ≤ -4.2
• G152A = -1.77
• A73G A122U G126U = -0.405
• A19G U55A C87A A106G G124C G136C C149A A150C = ≤ -4.2
• A24U G34C C79G C87U A137U = ≤ -4.2

From: the RNAGym collection of RNA variant scans (doi:10.1073/pnas.2313332121)
